Test system: 519858-162-T-J1-PDC complex spheroid viability
Assay: Anticancer human tumor 519858-162-T-J1-PDC patient-derived colon adenocarcinoma cell line growth inhibition [GQUAD]
Settings: second compound 3.16 µM; first compound 3.16 µM; stronger effect = lower value
Recorded measurements of viability, T/C, one per entry
property-label: viability, T/C (%)

{"molecule": "O=C(c1cc(Cc2n[nH]c(=O)c3ccccc23)ccc1F)N1CCN(C(=O)C2CC2)CC1 + Cc1[nH]c2ccc(F)cc2c1-c1nc2c3cccnc3c3ncccc3c2[nH]1", "result-number": 79.8}
{"molecule": "C=CCn1c(=O)c2cnc(Nc3ccc(N4CCN(C)CC4)cc3)nc2n1-c1cccc(C(C)(C)O)n1 + CN(C)c1ccc(Nc2c3ccc(NC(=O)CCN4CCCC4)cc3nc3cc(NC(=O)CCN4CCCC4)ccc23)cc1", "result-number": 62.1}
{"molecule": "CC(=O)O[C@H]1C(=O)[C@@]2(C)[C@H]([C@H](OC(=O)c3ccccc3)[C@]3(O)C[C@H](OC(=O)[C@H](O)[C@@H](NC(=O)c4ccccc4)c4ccccc4)C(C)=C1C3(C)C)[C@]1(OC(C)=O)CO[C@@H]1C[C@@H]2O + CN(C)c1ccc(Nc2c3ccc(NC(=O)CCN4CCCC4)cc3nc3cc(NC(=O)CCN4CCCC4)ccc23)cc1", "result-number": 75.9}
{"molecule": "CC1COCCN1c1cc(-c2ccnn2C)c2ccnc(-c3ccn[nH]3)c2n1 (centres undefined) + CN(C)c1ccc(Nc2c3ccc(NC(=O)CCN4CCCC4)cc3nc3cc(NC(=O)CCN4CCCC4)ccc23)cc1", "result-number": 58.7}
{"molecule": "COc1cccc2c1C(=O)c1c(O)c3c(c(O)c1C2=O)CC(O)(C(=O)CO)CC3OC1CC(N)C(O)C(C)O1 (centres undefined) + CN(C)c1ccc(Nc2c3ccc(NC(=O)CCN4CCCC4)cc3nc3cc(NC(=O)CCN4CCCC4)ccc23)cc1", "result-number": 63.2}
{"molecule": "CC1COCCN1c1cc(C2(O)CC3CCC(C2)O3)c2cnn(-c3ccn[nH]3)c2n1 (centres undefined) + CN(C)c1ccc(Nc2c3ccc(NC(=O)CCN4CCCC4)cc3nc3cc(NC(=O)CCN4CCCC4)ccc23)cc1", "result-number": 74.3}
{"molecule": "CC1COCCN1c1cc(C2(S(C)(=N)=O)CC2)nc(-c2ccnc3[nH]ccc23)n1 (centres undefined) + CN(C)c1ccc(Nc2c3ccc(NC(=O)CCN4CCCC4)cc3nc3cc(NC(=O)CCN4CCCC4)ccc23)cc1", "result-number": 84.8}
{"molecule": "CC(C)(O)C1CCC(Nc2ccc3ncc(-c4cccc(C(F)(F)F)c4)n3n2)CC1 (centres undefined) + Cc1cnc(CNC(=O)c2c(=O)c3ccc(N4CCCN(C)CC4)nc3n3c2sc2ccccc23)cn1", "result-number": 31.4}
{"molecule": "CC(=O)O[C@H]1C(=O)[C@@]2(C)[C@H]([C@H](OC(=O)c3ccccc3)[C@]3(O)C[C@H](OC(=O)[C@H](O)[C@@H](NC(=O)c4ccccc4)c4ccccc4)C(C)=C1C3(C)C)[C@]1(OC(C)=O)CO[C@@H]1C[C@@H]2O + Cc1cnc(CNC(=O)c2c(=O)c3ccc(N4CCCN(C)CC4)nc3n3c2sc2ccccc23)cn1", "result-number": 51.4}

====

Test system: 519858-162-T-J1-PDC complex spheroid viability
Assay: Anticancer human tumor 519858-162-T-J1-PDC cell line growth inhibition [GQUAD];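 note: spheroids exposed to compounds for 7 days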;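 for viability, T/C: 100% = DMSO vehicle control viability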
Conditions: second compound 0.0316 µM; first compound 0.0999 µM; stronger effect = lower value

{"molecule": "CC[C@@]1(O)C(=O)OCc2c1cc1n(c2=O)Cc2cc3c(CN(C)C)c(O)ccc3nc2-1 + Cc1[nH]c2ccc(F)cc2c1-c1nc2c3cccnc3c3ncccc3c2[nH]1", "system-tested": "519858-162-T-J1-PDC complex spheroid viability", "viability, T/C": "72.1%"}
{"molecule": "CCc1c2c(nc3ccc(O)cc13)-c1cc3c(c(=O)n1C2)COC(=O)[C@]3(O)CC + Cc1cnc(CNC(=O)c2c(=O)c3ccc(N4CCCN(C)CC4)nc3n3c2sc2ccccc23)cn1", "system-tested": "519858-162-T-J1-PDC complex spheroid viability", "viability, T/C": "74.8%"}
{"molecule": "CC[C@@]1(O)C(=O)OCc2c1cc1n(c2=O)Cc2cc3c(CN(C)C)c(O)ccc3nc2-1 + Cc1cnc(CNC(=O)c2c(=O)c3ccc(N4CCCN(C)CC4)nc3n3c2sc2ccccc23)cn1", "system-tested": "519858-162-T-J1-PDC complex spheroid viability", "viability, T/C": "78%"}
{"molecule": "Cn1ncnc1[C@H]1c2n[nH]c(=O)c3cc(F)cc(c23)N[C@@H]1c1ccc(F)cc1 + CN(C)c1ccc(Nc2c3ccc(NC(=O)CCN4CCCC4)cc3nc3cc(NC(=O)CCN4CCCC4)ccc23)cc1", "system-tested": "519858-162-T-J1-PDC complex spheroid viability", "viability, T/C": "79.6%"}
{"molecule": "CCc1c2c(nc3ccc(O)cc13)-c1cc3c(c(=O)n1C2)COC(=O)[C@]3(O)CC + Cc1[nH]c2ccc(F)cc2c1-c1nc2c3cccnc3c3ncccc3c2[nH]1", "system-tested": "519858-162-T-J1-PDC complex spheroid viability", "viability, T/C": "56.6%"}
{"molecule": "Cn1ncnc1[C@H]1c2n[nH]c(=O)c3cc(F)cc(c23)N[C@@H]1c1ccc(F)cc1 + Cc1cnc(CNC(=O)c2c(=O)c3ccc(N4CCCN(C)CC4)nc3n3c2sc2ccccc23)cn1", "system-tested": "519858-162-T-J1-PDC complex spheroid viability", "viability, T/C": "70.2%"}
{"molecule": "Cc1[nH]c2ccccc2c1CCNCc1ccc(/C=C/C(=O)NO)cc1 + Cc1[nH]c2ccc(F)cc2c1-c1nc2c3cccnc3c3ncccc3c2[nH]1", "system-tested": "519858-162-T-J1-PDC complex spheroid viability", "viability, T/C": "64.1%"}

====

Test system: 519858-162-T-J1-PDC complex spheroid viability
Test: Anticancer human tumor 519858-162-T-J1-PDC cell line growth inhibition [GQUAD];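 note: spheroids exposed to compounds for 7 days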
Conditions: curve of first compound; second compound 1 µM
From the text: DNA G-quadruplex Stabilizer Agents in Combinations in Complex Spheroids A high-throughput screen of multi-cell type tumor spheroids was designed to identify active combinations of DNA G-quadruplex stabilizer agents and targeted small molecules. […] Compounds. […] If the clinical Cmax for an agent had not been determined, the highest concentration tested was 10 microM. […]

{"molecule": "C=CCn1c(=O)c2cnc(Nc3ccc(N4CCN(C)CC4)cc3)nc2n1-c1cccc(C(C)(C)O)n1 + Cc1cnc(CNC(=O)c2c(=O)c3ccc(N4CCCN(C)CC4)nc3n3c2sc2ccccc23)cn1", "IC50": "< 31.6 nM"}
{"molecule": "CC(C)n1c(=O)n(C)c2cnc3cc(F)c(-c4ccc(OCCCN5CCCCC5)nc4)cc3c21 + Cc1cnc(CNC(=O)c2c(=O)c3ccc(N4CCCN(C)CC4)nc3n3c2sc2ccccc23)cn1", "IC50": "< 31.6 nM"}
{"molecule": "CCc1c2c(nc3ccc(O)cc13)-c1cc3c(c(=O)n1C2)COC(=O)[C@]3(O)CC + Cc1[nH]c2ccc(F)cc2c1-c1nc2c3cccnc3c3ncccc3c2[nH]1", "IC50": "> 316 nM"}

====

Recorded measurements of viability, T/C, one per entry
Test system: 519858-162-T-J1-PDC complex spheroid viability
Assay: Anticancer human tumor 519858-162-T-J1-PDC cell line growth inhibition [GQUAD];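 note: spheroids exposed to compounds for 7 days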;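 for viability, T/C: 100% = DMSO vehicle control viability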
Conditions: second compound 10 µM; first compound 0.316 µM; stronger effect = lower value
Description: DNA G-quadruplex Stabilizer Agents in Combinations in Complex Spheroids A high-throughput screen of multi-cell type tumor spheroids was designed to identify active combinations of DNA G-quadruplex stabilizer agents and targeted small molecules. […] Compounds. […] If the clinical Cmax for an agent had not been determined, the highest concentration tested was 10 microM. […]
property-label: viability, T/C (%)

{"compound": "CC(=O)O[C@H]1C(=O)[C@@]2(C)[C@H]([C@H](OC(=O)c3ccccc3)[C@]3(O)C[C@H](OC(=O)[C@H](O)[C@@H](NC(=O)c4ccccc4)c4ccccc4)C(C)=C1C3(C)C)[C@]1(OC(C)=O)CO[C@@H]1C[C@@H]2O + Cc1cnc(CNC(=O)c2c(=O)c3ccc(N4CCCN(C)CC4)nc3n3c2sc2ccccc23)cn1", "system-tested": "519858-162-T-J1-PDC complex spheroid viability", "property-label": "viability, T/C", "result-number": 38.7}
{"compound": "C#Cc1c(F)ccc2cc(O)cc(-c3ncc4c(N5CC6CCC(C5)N6)nc(OCC56CCCN5CC(F)C6)nc4c3F)c12 (stereo not given) + Cc1[nH]c2ccc(F)cc2c1-c1nc2c3cccnc3c3ncccc3c2[nH]1", "system-tested": "519858-162-T-J1-PDC complex spheroid viability", "property-label": "viability, T/C", "result-number": 76.3}
{"compound": "CC1COCCN1c1cc(-c2ccnn2C)c2ccnc(-c3ccn[nH]3)c2n1 (stereo not given) + Cc1cnc(CNC(=O)c2c(=O)c3ccc(N4CCCN(C)CC4)nc3n3c2sc2ccccc23)cn1", "system-tested": "519858-162-T-J1-PDC complex spheroid viability", "property-label": "viability, T/C", "result-number": 26.7}
{"compound": "C=CC(=O)N1CCN(c2nc(=O)n(-c3c(C)ccnc3C(C)C)c3nc(-c4c(O)cccc4F)c(F)cc23)C(C)C1 (stereo not given) + CN(C)c1ccc(Nc2c3ccc(NC(=O)CCN4CCCC4)cc3nc3cc(NC(=O)CCN4CCCC4)ccc23)cc1", "system-tested": "519858-162-T-J1-PDC complex spheroid viability", "property-label": "viability, T/C", "result-number": 56.7}
{"compound": "O=C(c1cc(Cc2n[nH]c(=O)c3ccccc23)ccc1F)N1CCN(C(=O)C2CC2)CC1 + Cc1cnc(CNC(=O)c2c(=O)c3ccc(N4CCCN(C)CC4)nc3n3c2sc2ccccc23)cn1", "system-tested": "519858-162-T-J1-PDC complex spheroid viability", "property-label": "viability, T/C", "result-number": 49.7}
{"compound": "COc1cccc2c1C(=O)c1c(O)c3c(c(O)c1C2=O)CC(O)(C(=O)CO)CC3OC1CC(N)C(O)C(C)O1 (stereo not given) + Cc1cnc(CNC(=O)c2c(=O)c3ccc(N4CCCN(C)CC4)nc3n3c2sc2ccccc23)cn1", "system-tested": "519858-162-T-J1-PDC complex spheroid viability", "property-label": "viability, T/C", "result-number": 43.9}
{"compound": "O=C(NO)c1cnc(N2CCN(S(=O)(=O)c3ccc4ccccc4c3)CC2)nc1 + Cc1cnc(CNC(=O)c2c(=O)c3ccc(N4CCCN(C)CC4)nc3n3c2sc2ccccc23)cn1", "system-tested": "519858-162-T-J1-PDC complex spheroid viability", "property-label": "viability, T/C", "result-number": 26.1}
{"compound": "COc1cc(C2c3cc4c(cc3C(OC3OC5COC(C)OC5C(O)C3O)C3COC(=O)C23)OCO4)cc(OC)c1O (stereo not given) + Cc1cnc(CNC(=O)c2c(=O)c3ccc(N4CCCN(C)CC4)nc3n3c2sc2ccccc23)cn1", "system-tested": "519858-162-T-J1-PDC complex spheroid viability", "property-label": "viability, T/C", "result-number": 56.4}
{"compound": "CCCS(=O)(=O)Nc1ccc(F)c(C(=O)c2c[nH]c3ncc(-c4ccc(Cl)cc4)cc23)c1F + Cc1[nH]c2ccc(F)cc2c1-c1nc2c3cccnc3c3ncccc3c2[nH]1", "system-tested": "519858-162-T-J1-PDC complex spheroid viability", "property-label": "viability, T/C", "result-number": 60.8}
{"compound": "Cc1cccc(N(C)C(=O)C2C(O)CCN2c2nc(C)cc(C(F)(F)F)c2C#N)c1 (stereo not given) + Cc1cnc(CNC(=O)c2c(=O)c3ccc(N4CCCN(C)CC4)nc3n3c2sc2ccccc23)cn1", "system-tested": "519858-162-T-J1-PDC complex spheroid viability", "property-label": "viability, T/C", "result-number": 44.4}
